System: 379773-124-R-J2-PDC complex spheroids, viability % test/control
procedureText: Anticancer human tumor 379773-124-R-J2-PDC patient-derived endometrial carcinoma cell line growth inhibition [CLK]
conditionDescription: second compound 10 µM; first compound 0.00316 µM; stronger effect = lower value
Rule: viability, T/C below 20% gives Y. Equal to or above 20% gives N.

| compound | category |
| --- | --- |
| Cn1ncnc1[C@H]1c2n[nH]c(=O)c3cc(F)cc(c23)N[C@@H]1c1ccc(F)cc1 + CNC(=O)c1ccc(Nc2nc(OC3CCCC3)c3c(-c4ccc5nc(C)oc5c4)c[nH]c3n2)c(OC)c1 | N |
| CCc1c2c(nc3ccc(O)cc13)-c1cc3c(c(=O)n1C2)COC(=O)[C@]3(O)CC + CN1CCN(c2cc(C(=O)Nc3cc4cc(-c5cnn(C)c5)ccc4cn3)ccn2)CC1 | Y |
| CCc1c2c(nc3ccc(O)cc13)-c1cc3c(c(=O)n1C2)COC(=O)[C@]3(O)CC + CNC(=O)c1ccc(Nc2nc(OC3CCCC3)c3c(-c4ccc5nc(C)oc5c4)c[nH]c3n2)c(OC)c1 | Y |

I wonder whether Cn1ncnc1[C@H]1c2n[nH]c(=O)c3cc(F)cc(c23)N[C@@H]1c1ccc(F)cc1 + CN1CCN(c2cc(C(=O)Nc3cc4cc(-c5cnn(C)c5)ccc4cn3)ccn2)CC1 has viability, T/C below 20%. Can you tell?
Y

Given COc1c(OCCCN2CCOCC2)ccc2c3n(c(=NC(=O)c4cnc(N)nc4)nc12)CCN3 + CNC(=O)c1ccc(Nc2nc(OC3CCCC3)c3c(-c4ccc5nc(C)oc5c4)c[nH]c3n2)c(OC)c1 , is recorded viability, T/C strictly lower than 20%?
N

Strictly below 20% in viability, T/C? CCN1CCN(Cc2ccc(Nc3ncc(F)c(-c4cc(F)c5nc(C)n(C(C)C)c5c4)n3)nc2)CC1 + CN1CCN(c2cc(C(=O)Nc3cc4cc(-c5cnn(C)c5)ccc4cn3)ccn2)CC1
Y

Quick check: viability, T/C of CCN1CCN(Cc2ccc(Nc3ncc(F)c(-c4cc(F)c5nc(C)n(C(C)C)c5c4)n3)nc2)CC1 + CNC(=O)c1ccc(Nc2nc(OC3CCCC3)c3c(-c4ccc5nc(C)oc5c4)c[nH]c3n2)c(OC)c1 under 20%?
N

# TODO verify viability, T/C < 20% strictly for this compound: COc1c(OCCCN2CCOCC2)ccc2c3n(c(=NC(=O)c4cnc(N)nc4)nc12)CCN3 + CN1CCN(c2cc(C(=O)Nc3cc4cc(-c5cnn(C)c5)ccc4cn3)ccn2)CC1
Y

---

// viability, T/C lookup, one value per entry
System: 379773-124-R-J2-PDC complex spheroids, viability % test/control
procedureText: Anticancer human tumor 379773-124-R-J2-PDC cell line growth inhibition [CLK];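 also: compound exposure lasted seven days before the viability readout; 100% = DMSO vehicle control wells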
conditionDescription: second compound 10 µM; first compound 1 µM; stronger effect = lower value
Write the value in % as a bare number.

The following compounds have reported results that may help.
| compound | valueObserved |
| --- | --- |
| COC1C=CCC(C)C(C)S(=O)(=O)NC(=O)c2ccc3c(c2)N(CC2CCC21)CC1(CCCc2cc(Cl)ccc21)CO3 (stereo not given) + CNC(=O)c1ccc(Nc2nc(OC3CCCC3)c3c(-c4ccc5nc(C)oc5c4)c[nH]c3n2)c(OC)c1 | 21.6 |
| O=C(c1cc(Cc2n[nH]c(=O)c3ccccc23)ccc1F)N1CCN(C(=O)C2CC2)CC1 + CNC(=O)c1ccc(Nc2nc(OC3CCCC3)c3c(-c4ccc5nc(C)oc5c4)c[nH]c3n2)c(OC)c1 | 23.9 |
| CC(CO)NC(=O)c1cc(-c2ccc(Cl)cc2)nn(-c2cnn(C)c2)c1=O (stereo not given) + CNC(=O)c1ccc(Nc2nc(OC3CCCC3)c3c(-c4ccc5nc(C)oc5c4)c[nH]c3n2)c(OC)c1 | 35.8 |
| CCc1c2c(nc3ccc(O)cc13)-c1cc3c(c(=O)n1C2)COC(=O)[C@]3(O)CC + CN1CCN(c2cc(C(=O)Nc3cc4cc(-c5cnn(C)c5)ccc4cn3)ccn2)CC1 | 0.18 |

With those in mind, consider the next compound.
Give the measured viability, T/C for C=CC(=O)N1CCN(c2nc(=O)n(-c3c(C)ccnc3C(C)C)c3nc(-c4c(O)cccc4F)c(F)cc23)C(C)C1 (stereo not given) + CN1CCN(c2cc(C(=O)Nc3cc4cc(-c5cnn(C)c5)ccc4cn3)ccn2)CC1
0.17

Sourced from PubChem BioAssay AID2060604
